experiment: absolute recovery over mixed-bed multilayer solid-phase extraction; higher = better recovery; details: wastewater effluent; enrichment method: SPE
Entries and their absolute recovery

{"columns": ["compound", "absolute recovery"],
 "data": [
  ["CC(C)OC(=O)NC(C(=O)NC(C)c1nc2ccc(F)cc2s1)C(C)C (centres undefined) [Benthiavalicarb-isopropyl]", "95.3%"],
  ["Nc1ccc(S(=O)(=O)[N-]c2nccs2)cc1 [Sulfathiazol]", "83.6%"],
  ["COc1ccc(NC(=O)N(C)C)cc1Cl [Metoxuron]", "90.2%"],
  ["N#Cc1nn(-c2c(Cl)cc(C(F)(F)F)cc2Cl)c(N)c1S(=O)C(F)(F)F (centres undefined) [Fipronil]", "94.2%"]
]}

Tell me the measured absolute recovery of Oc1ccc(C(F)(F)F)cc1 [4-(Trifluoromethyl)phenol] , please.
71.8%

Further, for O=C1Nc2ccc(Cl)cc2C(c2ccccc2Cl)=NC1O (centres undefined) [Lorazepam] ?
97.3%

Same read-out for O=C1C=CC(=C2NC=CNC2=O)C=C1 [Amoxicillin-EP-Impurity-F] ?
82.1%

Same read-out for COC(=O)c1ccccc1S(=O)(=O)[N-]C(=O)N(C)c1nc(C)nc(OC)n1 [Tribenuron-methyl] ?
38%

Now consider C1=Cc2ccccc2Nc2ccccc21 [Iminostilben] and answer again.
79.4%

What do you have for CCCCNC(=O)OCC#CI [IPBC (=Iodocarb)] ?
72.2%

Next compound up: CS(=O)(=O)c1ccc(C(=O)[O-])c([N+](=O)[O-])c1 [Mesotrion-MNBA]
89.3%

Another compound: CC(C)[NH2+]CC(O)COc1ccc(CC(=O)[O-])cc1 (centres undefined) [Atenolol-acid (=Metoprolol acid)]
92.1%

Request: CCCCC(=O)N(Cc1ccc(-c2ccccc2-c2nnn[n-]2)cc1)C(C(=O)[O-])C(C)C (centres undefined) [Valsartan]
91%

How about O=C([O-])C(F)(F)C(F)(F)C(F)(F)F [PFBA] ?
90.2%

// query: COC=C(C(=O)OC)c1ccccc1Oc1cc(Oc2ccccc2C#N)ncn1 [Azoxystrobin]
92.8%

Hello, the source for this data is the supplement of paper PMC6470124, in case you need it.
